Data origin: patent US20240217990A1

- tgt: TLR7 (Homo sapiens)
- Construct: Human peripheral blood mononuclear cells (PBMCs) consist of lymphocytes, monocytes and dendritic cells that express TLR7, TLR8 and TLR9; endogenous in cells
- procedure-details: TLR7 human PBMC cell-based assay (antagonist, GS-986 stimulated cytokine release)
- details: human PBMCs; TLR7 agonist GS-986 400 nM, 6 hours; cytokines (IL-6 and IFNα) in supernatant; read-out: TLR-7 EC50
- Source text: Human peripheral blood mononuclear cells (PBMCs) consist of lymphocytes, monocytes and dendritic cells that express TLR7, TLR8 and TLR9. These cells respond to TLR7, TLR8 and TLR9 ligand stimulation and produce cytokines and chemokines in vitro and in vivo. Human PBMCs are therefore suitable to be used in a cell-based assay to assess the in vitro potency of a TLR 7, 8, and/or 9 antagonist. […]
pEC50: −log10 of the molar value.
assay-endpoint: pEC50

Please review the following examples before continuing.
{"molecule": "Cc1cc(-c2[nH]c3cc(C4CCN(C(=O)[C@H]5CCCN5C)CC4)sc3c2C(C)C)cn2ncnc12", "tgt": "TLR7 (Homo sapiens)", "pEC50": 8.41}
{"molecule": "Cc1cc(-c2[nH]c3cc(C(=O)N(C)[C@@H]4CNC[C@H]4F)sc3c2C(C)C)cn2ncnc12", "tgt": "TLR7 (Homo sapiens)", "pEC50": 8.39}
{"molecule": "Cc1cc(-c2[nH]c3cc(-c4cnn5c4CNCC5)sc3c2C(C)C)cn2ncnc12", "tgt": "TLR7 (Homo sapiens)", "pEC50": 7.46}
{"molecule": "Cc1cc(-c2[nH]c3cc(C(=O)N(C4CCC4)C4CCN(CC(N)=O)CC4)sc3c2C(C)C)cn2ncnc12", "tgt": "TLR7 (Homo sapiens)", "pEC50": 7.85}
{"molecule": "Cc1cc(-c2[nH]c3cc(C(=O)NC4CCNCC4)sc3c2C(C)C)cc(C)n1", "tgt": "TLR7 (Homo sapiens)", "pEC50": 6.23}

P. Cc1cc(-c2[nH]c3cc(C(=O)N4CCN[C@@H](c5ccccc5)C4)sc3c2C(C)C)cn2ncnc12
Q. Cc1cc(-c2[nH]c3cc(C(=O)N(C)[C@H]4CCNC4)sc3c2C(C)C)cn2ncnc12
R. Cc1cc(-c2[nH]c3cc(C(=O)N4CCCC(CN(C)C)C4)sc3c2C(C)C)cn2ncnc12 (stereo not shown)
S. Cc1cc(-c2[nH]c3cc(C(=O)N(C)C4CCN(CCO)CC4)sc3c2C(C)C)cn2ncnc12
T. Cc1cc(-c2[nH]c3cc(C(=O)N4C[C@@H](N)CC[C@H]4C)sc3c2C(C)C)cn2ncnc12
Challenge: Sort low-to-high on pEC50, please. To answer, arrange all of the labels according to the requested order.
Response given: P, R, S, Q, T
(P: 7.37, R: 8.54, S: 8.89, Q: 9.22, T: 9.52)

* * *

- tgt: TLR8 (Homo sapiens, UniProt Q9NR97)
- Construct: Human peripheral blood mononuclear cells (PBMCs) consist of lymphocytes, monocytes and dendritic cells that express TLR7, TLR8 and TLR9; endogenous in cells
- Sequence (Q9NR97 27-1041): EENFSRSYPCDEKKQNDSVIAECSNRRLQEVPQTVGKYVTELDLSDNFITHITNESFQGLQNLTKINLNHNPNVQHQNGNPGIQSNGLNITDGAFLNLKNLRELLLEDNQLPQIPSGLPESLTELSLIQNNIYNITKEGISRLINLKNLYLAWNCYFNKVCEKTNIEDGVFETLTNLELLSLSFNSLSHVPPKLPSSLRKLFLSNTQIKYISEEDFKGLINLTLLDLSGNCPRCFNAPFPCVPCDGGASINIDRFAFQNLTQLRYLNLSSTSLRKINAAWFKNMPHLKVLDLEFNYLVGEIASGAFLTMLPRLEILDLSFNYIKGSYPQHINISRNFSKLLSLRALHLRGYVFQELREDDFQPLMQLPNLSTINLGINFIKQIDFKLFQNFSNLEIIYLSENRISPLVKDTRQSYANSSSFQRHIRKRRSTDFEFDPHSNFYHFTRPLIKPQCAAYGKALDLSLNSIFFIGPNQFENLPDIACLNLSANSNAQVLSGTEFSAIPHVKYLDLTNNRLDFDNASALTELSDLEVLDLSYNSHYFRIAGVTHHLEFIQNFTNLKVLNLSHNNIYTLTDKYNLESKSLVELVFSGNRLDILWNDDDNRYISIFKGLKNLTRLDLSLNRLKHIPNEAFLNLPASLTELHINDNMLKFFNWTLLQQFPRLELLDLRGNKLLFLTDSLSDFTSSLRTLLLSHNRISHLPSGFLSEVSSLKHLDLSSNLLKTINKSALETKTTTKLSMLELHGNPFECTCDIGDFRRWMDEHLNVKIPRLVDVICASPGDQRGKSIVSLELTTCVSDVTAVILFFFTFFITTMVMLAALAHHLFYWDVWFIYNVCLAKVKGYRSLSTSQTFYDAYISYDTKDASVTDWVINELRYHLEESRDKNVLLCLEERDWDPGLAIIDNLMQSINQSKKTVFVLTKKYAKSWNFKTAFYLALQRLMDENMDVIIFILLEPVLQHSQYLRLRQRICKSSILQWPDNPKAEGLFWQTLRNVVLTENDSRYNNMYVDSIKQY
- procedure-details: TLR8 human PBMC cell-based assay (antagonist, Compound A stimulated cytokine release)
- details: human PBMCs; TLR8 agonist Compound A 800 nM, 6 hours; cytokines (TNFa and IL 12p40) in supernatant; read-out: TLR-8 EC50
assay-endpoint: EC50 (nM)

Please review the following examples before continuing.
{"compound": "Cc1cc(-c2[nH]c3cc(C(=O)N4CCN[C@H](C)C4)sc3c2C(C)C)cn2ncnc12", "unit-tag": "nM", "EC50": 0.8}
{"compound": "Cc1cc(-c2[nH]c3cc(C(=O)N4CCCC5NCCC54)sc3c2C(C)C)cc(C)n1 (centres unmarked)", "unit-tag": "nM", "EC50": 81}
{"compound": "Cc1c(-c2[nH]c3cc(-c4cnc5c(c4)CNCC5)sc3c2C(C)C)cn2ncnc2c1C", "unit-tag": "nM", "EC50": 0.7}
{"compound": "Cc1nc(N2CCNCC2)ccc1-c1cc2[nH]c(-c3cc(C)c4ncnn4c3)c(C(C)C)c2s1", "unit-tag": "nM", "EC50": 6}
{"compound": "Cc1cc(-c2[nH]c3cc(C(=O)N(C)C4CCN(CCO)CC4)sc3c2C(C)C)cn2ncnc12", "unit-tag": "nM", "EC50": 2.7}
{"compound": "Cc1cc(-c2[nH]c3cc(C(=O)N(C)C4CCN(CCC(F)(F)F)CC4)sc3c2C(C)C)cn2ncnc12", "unit-tag": "nM", "EC50": 14.7}
{"compound": "Cc1cc(CN2CCC(c3cc4[nH]c(-c5cc(C)c6ncnn6c5)c(C(C)C)c4s3)CC2)no1", "unit-tag": "nM", "EC50": 12.3}
{"compound": "Cc1cc(-c2[nH]c3cc(C(=O)N4CCn5c(nnc5C(F)(F)F)C4)sc3c2C(C)C)cn2ncnc12", "unit-tag": "nM", "EC50": 47.8}

P. Cc1cc(-c2[nH]c3cc(C4CC5(CCN(CC(N)=O)CC5)C4)sc3c2C(C)C)cn2ncnc12
Q. CC(C)c1c(-c2ccc3ncnn3c2)[nH]c2cc(C(=O)N3CCNCC3)sc12
Challenge: Would you let me know which has the greater EC50 value, P or Q ? Reply briefly: the label of your chosen item.
Response given: Q

* * *

- tgt: TLR7 (Homo sapiens, UniProt Q9NYK1)
- Construct: Human peripheral blood mononuclear cells (PBMCs) consist of lymphocytes, monocytes and dendritic cells that express TLR7, TLR8 and TLR9; endogenous in cells
- Sequence (Q9NYK1 27-1049): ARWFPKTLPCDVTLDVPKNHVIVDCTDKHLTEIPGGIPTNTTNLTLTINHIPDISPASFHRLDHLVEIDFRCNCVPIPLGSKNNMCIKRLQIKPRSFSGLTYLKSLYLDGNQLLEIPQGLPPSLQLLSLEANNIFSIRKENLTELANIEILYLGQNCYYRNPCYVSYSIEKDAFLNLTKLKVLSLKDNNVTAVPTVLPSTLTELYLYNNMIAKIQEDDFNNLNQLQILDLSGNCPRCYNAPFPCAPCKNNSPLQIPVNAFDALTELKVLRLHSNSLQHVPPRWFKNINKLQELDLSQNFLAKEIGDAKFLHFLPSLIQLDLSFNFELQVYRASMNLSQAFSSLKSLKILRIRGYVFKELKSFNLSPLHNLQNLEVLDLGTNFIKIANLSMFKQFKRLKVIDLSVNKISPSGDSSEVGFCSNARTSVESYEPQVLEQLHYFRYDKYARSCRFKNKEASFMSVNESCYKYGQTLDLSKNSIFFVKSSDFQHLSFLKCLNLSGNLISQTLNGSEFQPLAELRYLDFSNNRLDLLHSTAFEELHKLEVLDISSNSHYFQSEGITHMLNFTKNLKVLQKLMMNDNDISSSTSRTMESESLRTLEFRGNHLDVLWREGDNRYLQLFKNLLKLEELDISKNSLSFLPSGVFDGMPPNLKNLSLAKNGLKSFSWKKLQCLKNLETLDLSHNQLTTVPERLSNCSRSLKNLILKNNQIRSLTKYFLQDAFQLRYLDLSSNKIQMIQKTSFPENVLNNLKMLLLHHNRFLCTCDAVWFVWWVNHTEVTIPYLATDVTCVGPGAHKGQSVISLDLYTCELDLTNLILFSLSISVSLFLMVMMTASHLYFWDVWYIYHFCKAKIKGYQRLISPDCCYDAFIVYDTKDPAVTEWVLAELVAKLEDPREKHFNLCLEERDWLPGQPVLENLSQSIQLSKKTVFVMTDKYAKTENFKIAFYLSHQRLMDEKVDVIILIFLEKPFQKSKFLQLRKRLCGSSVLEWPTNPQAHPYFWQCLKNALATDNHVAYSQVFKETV
- procedure-details: TLR7 human PBMC cell-based assay (antagonist, GS-986 stimulated cytokine release)
- details: human PBMCs; TLR7 agonist GS-986 400 nM, 6 hours; cytokines (IL-6 and IFNα) in supernatant; read-out: TLR-7 EC50
pEC50: −log10 of the molar value.
assay-endpoint: pEC50

Please review the following examples before continuing.
{"compound": "Cc1cc(-c2[nH]c3cc(C(=O)C4CCNCC4)sc3c2C(C)C)cn2ncnc12", "experimental-value": 9.40}
{"compound": "Cc1c(-c2[nH]c3cc(-c4cn(C5CCNCC5)nn4)sc3c2C(C)C)cn2ncnc2c1C", "experimental-value": 8.80}
{"compound": "Cc1cc(-c2[nH]c3cc(C(=O)N4CCCNCC4)sc3c2C(C)C)cc(C)n1", "experimental-value": 7.34}

P. Cc1cc(-c2[nH]c3cc(C(=O)N4CCC5CNCCC54)sc3c2C(C)C)cn2ncnc12 (stereo not drawn)
Q. Cc1cc(-c2[nH]c3cc(C4CCN(C(=O)CN(C)C)CC4)sc3c2C(C)C)cn2ncnc12
Challenge: Would you let me know which has the greater pEC50 value, P or Q ? Reply briefly: the label of your chosen item.
Response given: P

* * *

- tgt: TLR8 (Homo sapiens)
- Construct: Human peripheral blood mononuclear cells (PBMCs) consist of lymphocytes, monocytes and dendritic cells that express TLR7, TLR8 and TLR9; endogenous in cells
- procedure-details: TLR8 human PBMC cell-based assay (antagonist, Compound A stimulated cytokine release)
- details: human PBMCs; TLR8 agonist Compound A 800 nM, 6 hours; cytokines (TNFa and IL 12p40) in supernatant; read-out: TLR-8 EC50
pEC50: −log10 of the molar value.
assay-endpoint: pEC50

{"compound": "Cc1cc(-c2[nH]c3cc(C(=O)N4CCNCC4)sc3c2C(C)C)cn(C)c1=O [Example 34]", "pEC50": 8.52}

A. Cc1cc(-c2[nH]c3cc(-c4ccc(C5CCNCC5)cc4)sc3c2C(C)C)cn2ncnc12 [Example 221]
B. Cc1cc(-c2[nH]c3cc(C(=O)N4CC5CC(C4)N5)sc3c2C(C)C)cc(C)n1 [Example 18]
C. Cc1cc(-c2[nH]c3cc(C4CCC5(CNC5)C4)sc3c2C(C)C)cn2ncnc12 (stereo not shown) [Example 162]
Challenge: # rank_down: sort by pEC50, max first To answer, arrange all of the labels according to the requested order.
Response given: A, C, B

* * *

- tgt: TLR7 (Homo sapiens, UniProt Q9NYK1)
- Construct: Human peripheral blood mononuclear cells (PBMCs) consist of lymphocytes, monocytes and dendritic cells that express TLR7, TLR8 and TLR9; endogenous in cells
- procedure-details: TLR7 human PBMC cell-based assay (antagonist, GS-986 stimulated cytokine release)
- details: human PBMCs; TLR7 agonist GS-986 400 nM, 6 hours; cytokines (IL-6 and IFNα) in supernatant; read-out: TLR-7 EC50
pEC50: −log10 of the molar value.
assay-endpoint: pEC50

Please review the following examples before continuing.
{"compound": "Cc1c(-c2[nH]c3cc(-c4ccc(N5CCNCC5)nc4)sc3c2C(C)C)cn2ncnc2c1C", "pEC50": 9.40}
{"compound": "Cc1cc(-c2[nH]c3cc(C(=O)N(CCN(C)C)C4CCCC4)sc3c2C(C)C)cn2ncnc12", "pEC50": 7.84}

A. Cc1cc(-c2[nH]c3cc(C(=O)N(C)C4CCC(N5CC(F)C5)CC4)sc3c2C(C)C)cn2ncnc12 (stereo not shown)
B. Cc1cc(-c2[nH]c3cc(C(=O)N(C)Cc4cccnc4)sc3c2C(C)C)cn2ncnc12
C. Cc1cc(-c2[nH]c3cc(C4CCC5(CC4)CN(C(=O)[C@@H]4CCCN4C)C5)sc3c2C(C)C)cn2ncnc12
D. Cc1cc(-c2[nH]c3cc(-c4ccc5c(c4)CNC5)sc3c2C(C)C)cn2ncnc12
E. Cc1cc(-c2[nH]c3cc(C4CC5(CCN(CC(N)=O)CC5)C4)sc3c2C(C)C)cn2ncnc12
Challenge: # rank_down: sort by pEC50, max first To answer, arrange all of the labels according to the requested order.
Response given: C, E, A, D, B
(C: 9.52, E: 9.30, A: 8.18, D: 7.81, B: 7.35)
